target: Human plasma kallikrein (Homo sapiens (Human), UniProt P03952); assay: Kallikrein Assay (fluorogenic substrate Acetyl-K-P-R-AFC); settings: Plasma Kallikrein (PKal)
Sequence (P03952 391-638): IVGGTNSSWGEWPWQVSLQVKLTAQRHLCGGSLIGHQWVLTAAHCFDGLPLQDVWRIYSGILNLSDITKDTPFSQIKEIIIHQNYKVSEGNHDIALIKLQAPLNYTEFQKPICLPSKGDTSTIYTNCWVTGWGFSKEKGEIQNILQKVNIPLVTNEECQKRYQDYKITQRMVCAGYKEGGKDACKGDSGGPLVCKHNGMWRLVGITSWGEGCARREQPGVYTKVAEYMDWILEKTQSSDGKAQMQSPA
Sequence (P03952 20-390 partner): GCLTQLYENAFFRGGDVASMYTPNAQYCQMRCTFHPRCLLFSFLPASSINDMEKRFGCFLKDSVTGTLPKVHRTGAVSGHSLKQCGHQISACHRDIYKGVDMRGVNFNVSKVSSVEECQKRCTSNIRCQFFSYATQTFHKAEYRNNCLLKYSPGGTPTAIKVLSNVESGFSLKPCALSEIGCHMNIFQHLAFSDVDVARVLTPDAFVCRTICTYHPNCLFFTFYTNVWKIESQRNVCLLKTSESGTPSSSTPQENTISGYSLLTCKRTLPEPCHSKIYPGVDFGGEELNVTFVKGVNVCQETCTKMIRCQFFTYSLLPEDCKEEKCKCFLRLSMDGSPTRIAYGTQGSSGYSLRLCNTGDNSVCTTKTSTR
Assign labels as follows, please: label 1 for IC50 below 0.5 nM; label 0 for IC50 equal to or exceeding 0.5 nM.

Worked examples, 3 compounds total:
compound	assay-system	class-label
Cc1ncc(-c2c(C(F)F)ccc(Cl)c2F)nc1C(=O)Nc1cnn(Cc2cnc(N3C[C@H]4C[C@H]4C3=O)c(N)c2)c1 [Example 191]	Human plasma kallikrein (Homo sapiens (Human), UniProt P03952)	label 0
Cc1ncc(-c2c(C#N)ccc(Cl)c2F)nc1C(=O)Nc1cnn(C(C)c2cnc(N3C[C@H]4C[C@H]4C3=O)c(F)c2C)c1 (single isomer, unassigned) [Example 136]	Human plasma kallikrein (Homo sapiens (Human), UniProt P03952)	label 1
Cc1cc(N2C[C@H]3C[C@H]3C2=O)ccc1C(C)n1cc(NC(=O)c2nc(-c3c(C(F)F)ccc(Cl)c3F)cnc2C)cn1 (single isomer, unassigned) [Example 97]	Human plasma kallikrein (Homo sapiens (Human), UniProt P03952)	label 0

Item Cc1ncc(-c2c(C(F)F)ccc(Cl)c2F)nc1C(=O)Nc1cnn(C(C)c2cnc(N3C[C@H]4C[C@H]4C3=O)c(C)n2)c1 (single isomer, unassigned) [Example 15] : IC50 beneath 0.5 nM, strictly? label 1

Same read-out for Cc1cc([C@H](C)n2cc(NC(=O)c3nc(-c4c(OC(F)F)ccc(Cl)c4F)cnc3C)cn2)nnc1N1C[C@H]2C[C@H]2C1=O [Example 39] ? label 1

Same read-out for Cc1nc(C2(n3cc(NC(=O)c4nc(-c5c(C(F)F)ccc(Cl)c5F)cnc4CO)cn3)CC2)cnc1N1C[C@H]2C[C@H]2C1=O [Example 223] ? label 0
